system: HOP-62 NSCLC; test: NCI-60 one-dose screen, 48 h (100 = growth as untreated, 0 = no growth, -100 = all killed); details: 10 µM unless noted
Compounds without any hit were thinned out: in the full panel of roughly 83,000, 20% have a hit. Activity calls are given as the source filed them. How the source made its calls: active means growth percent below 10; inactive means the rest.
Listed below: growth values for each entry.

C/C(=N\NC(=O)c1ccncc1)c1ccc(N)cc1; 95.8% (inactive)

# growth of CCCCCCC/C=C/[C@H]1O[C@]23C(=O)C[C@@]4(C[C@@H](OC5OC(CO)C(O)C(O)C5O)C[C@@H]4[C@H]2C=C1C)OC3=O (stereo not given in full) = 17.3% (inactive)

###

tested on: OVCAR-3 ovarian; test: NCI-60 one-dose screen, 48 h; conditions: 10 µM unless noted
About 83,000 compounds went through this panel and 20% of them were active in at least one assay; those are over-represented in the sample as a whole. The source made the active and inactive calls. Rule for the calls: active = growth percent below 10; inactive = the rest.
Hi there, use one of these labels in your reply, thanks! Y = active, N = inactive

Worked cases, answers included:
Cc1ccc(C(=O)O)o1; N
Cc1c(Br)cccc1NC(=O)c1sc2nc3c(cc2c1N)CN(Cc1ccccc1)CC3; Y
N#CC(C#N)=C1NC(c2ccccc2)=C(c2ccccc2)C(c2ccccc2Cl)=C1C#N; N
C=C(C)[C@@H]1CC[C@]2(C(=O)OCCCC[P+](c3ccccc3)(c3ccccc3)c3ccccc3)CC[C@]3(C)[C@H](CC[C@@H]4[C@@]5(C)CC[C@H](OC(=O)C(Cl)Cl)C(C)(C)[C@@H]5CC[C@]43C)[C@@H]12; Y
Cc1ccc(C2CC(c3ccc(Nc4nc(NCCO)nc(NCCO)n4)cc3)=NN2c2ccc(Cl)cc2)cc1 (centres undefined); N

IN: Answer briefly: the call reported for O=C1CC23OC4ON=C(Br)C4C2C(O)c2ccccc2N13 (centres undefined) in this assay.
OUT: N

IN: Answer briefly: the call reported for C#C[C@@]1(O)[C@@H](CO)O[C@@H](n2cc(-c3ccco3)c3c(N)ncnc32)[C@@H]1O in this assay.
OUT: N

IN: Answer briefly: the call reported for COc1ccc2c(c1)OC13Oc4cc(OC)ccc4C=C1CCCCC3=C2 in this assay.
OUT: N

###

tested on: U251 CNS; assay: NCI-60 one-dose screen, 48 h (100 = growth as untreated, 0 = no growth, -100 = all killed); settings: 10 µM unless noted
Compounds without any hit were thinned out: in the full panel of roughly 83,000, 20% have a hit.
reported metric: growth (%)
State just the number; it will be interpreted in %.

Answered examples (5):
CC(=O)OCC1SC(OC(C)=O)C(NC(=O)/C=C/CCl)C(OC(C)=O)C1OC(C)=O (stereo unspecified); 90.6
O=C1C(Cl)=C(Nc2ccc3c(c2NC2=C(Cl)C(=O)c4ccccc4C2=O)C(=O)c2ccccc2C3=O)C(=O)c2ccccc21; 14.3
COc1cc(C(C)c2ccc3c(ccn3C)c2)cc(OC)c1OC (stereo unspecified); 14.4
Nc1cc(N)c(S(=O)(=O)O)cc1N=Nc1cc([N+](=O)[O-])ccc1O; 100
C=C(C)[C@@H]1CC[C@]2(C(N)=O)CC[C@]3(C)[C@H](CC[C@@H]4[C@@]5(C)CCCNC(C)(C)[C@@H]5CC[C@]43C)[C@@H]12; 58.7

# growth of COc1ccc(C2N(c3cc(OC)c(OC)c(OC)c3)C(=O)C2(F)F)cc1F (stereo unspecified) = 41.6
